# Test Target: KDR (Homo sapiens, UniProt P35968)
# Sequence (P35968 20-1356): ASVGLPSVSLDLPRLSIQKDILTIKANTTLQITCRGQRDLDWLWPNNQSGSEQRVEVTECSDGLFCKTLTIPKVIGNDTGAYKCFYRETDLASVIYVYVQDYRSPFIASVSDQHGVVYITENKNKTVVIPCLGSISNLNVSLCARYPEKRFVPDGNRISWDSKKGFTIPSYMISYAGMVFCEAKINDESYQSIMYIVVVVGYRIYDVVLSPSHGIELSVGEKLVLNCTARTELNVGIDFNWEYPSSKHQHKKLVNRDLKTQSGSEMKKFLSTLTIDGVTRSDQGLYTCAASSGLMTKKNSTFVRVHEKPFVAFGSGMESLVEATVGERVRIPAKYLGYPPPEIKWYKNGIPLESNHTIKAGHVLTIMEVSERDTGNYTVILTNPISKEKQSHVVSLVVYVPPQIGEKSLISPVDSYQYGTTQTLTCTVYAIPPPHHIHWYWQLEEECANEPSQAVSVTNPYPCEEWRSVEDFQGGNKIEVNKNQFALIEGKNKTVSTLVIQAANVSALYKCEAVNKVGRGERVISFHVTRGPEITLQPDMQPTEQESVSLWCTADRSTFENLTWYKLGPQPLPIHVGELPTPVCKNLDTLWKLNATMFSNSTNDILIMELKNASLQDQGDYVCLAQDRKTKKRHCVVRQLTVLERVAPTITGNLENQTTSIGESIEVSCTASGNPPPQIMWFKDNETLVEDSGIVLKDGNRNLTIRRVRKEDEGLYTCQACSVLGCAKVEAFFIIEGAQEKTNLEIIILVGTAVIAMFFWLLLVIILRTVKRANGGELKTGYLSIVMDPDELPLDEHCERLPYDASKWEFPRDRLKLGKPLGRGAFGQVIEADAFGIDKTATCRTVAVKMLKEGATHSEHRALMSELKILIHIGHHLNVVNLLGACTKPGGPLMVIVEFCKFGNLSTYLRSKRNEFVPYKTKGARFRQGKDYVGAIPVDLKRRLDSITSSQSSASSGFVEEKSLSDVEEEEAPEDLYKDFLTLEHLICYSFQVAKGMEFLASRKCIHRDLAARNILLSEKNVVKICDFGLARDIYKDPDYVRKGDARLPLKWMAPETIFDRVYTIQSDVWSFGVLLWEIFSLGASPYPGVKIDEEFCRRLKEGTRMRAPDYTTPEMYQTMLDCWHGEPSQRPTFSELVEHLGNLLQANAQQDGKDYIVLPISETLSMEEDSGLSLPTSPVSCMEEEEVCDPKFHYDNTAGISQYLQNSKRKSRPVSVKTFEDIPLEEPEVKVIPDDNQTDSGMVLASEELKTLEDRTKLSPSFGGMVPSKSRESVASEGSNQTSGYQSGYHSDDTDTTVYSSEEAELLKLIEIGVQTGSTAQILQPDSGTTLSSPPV
Measured Property: Ki

Take a look at these entries with their results.
{"columns": ["Molecule", "Result"],
 "data": [
  ["CC(=O)N1CCC(c2cnc3[nH]cc(-c4oncc4-c4cccc(F)c4F)c3c2)CC1 [Compound 63]", "1000 to 12500 nM"],
  ["Fc1cccc(-c2cnoc2-c2c[nH]c3ncc(-c4ncccn4)cc23)c1F [Compound 75]", "200 to 1000 nM"],
  ["CN(C)c1ccc(-c2cnc3[nH]cc(-c4nncn4-c4cccc(F)c4F)c3c2)cc1 [Compound 106]", "200 to 1000 nM"]
]}

Below are 5 molecules. Give each one its Ki.
1. CC(=O)Nc1cccc(-c2cnc3[nH]cc(-c4oncc4-c4cccc(F)c4F)c3c2)c1 [Compound 65]
2. CN1CCN(C(=O)[C@H]2C[C@@H]2c2cnc3[nH]cc(-c4oncc4-c4cccc(F)c4F)c3c2)CC1 (relative stereo) [Compound 142]
3. Oc1cnc2[nH]cc(-c3oncc3-c3cccc(Cl)c3Cl)c2c1 [Compound 48]
4. Fc1cccc(-n2cnnc2-c2c[nH]c3ncc(-c4ccncc4)cc23)c1F [Compound 114]
5. Fc1cccc(-n2cnnc2-c2c[nH]c3ncc(-c4cccnc4)cc23)c1F [Compound 113]

Given back:
1: < 200 nM; 2: 200 to 1000 nM; 3: < 200 nM; 4: 200 to 1000 nM; 5: 200 to 1000 nM

====

# Test Target: GSK-3β, (AA 1-420) (Homo sapiens)
# Test Protocol: GSK-3 inhibition assay, coupled enzyme system
# Type: biochemical
# Assay Conditions: 20 μM ATP, 300 μM peptide, 20 nM GSK-3b, 30° C.; read-out: Ki values (GSK3)
I'd appreciate it if you could supply Ki values for the items below.

{"columns": ["Molecule", "Ki"],
 "data": [
  ["Fc1ccc(-c2cnoc2-c2c[nH]c3ncccc23)c(F)c1F", "1000 to 12500 nM"],
  ["C[N+]1(C)CCN(c2ccc(-c3cnc4[nH]cc(-c5oncc5-c5cccc(F)c5F)c4c3)cc2)CC1", "< 200 nM"],
  ["CN1CCN(C(=O)[C@H]2C[C@@H]2c2cnc3[nH]cc(-c4oncc4-c4cccc(F)c4F)c3c2)CC1 (relative stereo)", "200 to 1000 nM"],
  ["Nc1ccnc(-c2cnc3[nH]cc(-c4oncc4-c4cccc(F)c4F)c3c2)c1", "200 to 1000 nM"],
  ["Fc1cccc(-n2cnnc2-c2c[nH]c3ncc(-c4ccc(CN5CCOCC5)cc4)cc23)c1F", "< 200 nM"],
  ["CN(C)CC#Cc1cnc2[nH]cc(-c3oncc3-c3cccc(F)c3F)c2c1", "200 to 1000 nM"],
  ["N#CCC(=O)N1CCC(c2cnc3[nH]cc(-c4oncc4-c4cccc(F)c4F)c3c2)CC1", "< 200 nM"]
]}

// below: Ki requested for another molecule
Asked: Retrieve Ki measured for CN(C)CCNc1ccc(-c2cnc3[nH]cc(-c4nncn4-c4cccc(F)c4F)c3c2)cn1 and print it.
Given back: 200 to 1000 nM

====

# Test Target: TAK1A-TAB fusion protein (Homo sapiens, UniProt O43318)
# Construct: using 20 nM TAK1A-TAB fusion protein
# Sequence (O43318 with tags, fused parts or gaps isoform O43318-2 limits assumed): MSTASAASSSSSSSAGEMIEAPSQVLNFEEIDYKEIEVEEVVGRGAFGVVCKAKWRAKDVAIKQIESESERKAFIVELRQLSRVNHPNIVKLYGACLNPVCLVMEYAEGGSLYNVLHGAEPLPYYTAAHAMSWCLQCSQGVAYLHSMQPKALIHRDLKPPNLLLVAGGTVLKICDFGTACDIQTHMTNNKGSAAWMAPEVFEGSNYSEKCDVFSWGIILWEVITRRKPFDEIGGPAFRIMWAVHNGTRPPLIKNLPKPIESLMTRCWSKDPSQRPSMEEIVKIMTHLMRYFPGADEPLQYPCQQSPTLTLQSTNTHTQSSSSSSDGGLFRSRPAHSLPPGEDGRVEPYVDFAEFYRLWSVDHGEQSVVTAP
# Test Protocol: TAK-1 inhibition assay, radiometric filter binding assay
# Assay Conditions: 50 μM ATP, 12 μM bovine myelin basic protein, 20 nM TAK1A-TAB fusion protein
pKi: −log10 of the molar value.
Measured Property: pKi

Use these answered entries as a reference point.
{"columns": ["Compound", "pKi"],
 "data": [
  ["CN(C)C1CC=C(c2cnc3[nH]cc(-c4oncc4-c4cccc(F)c4F)c3c2)CC1 (centres unmarked)", "> 6.70"],
  ["CN1CCCN(c2ccc(-c3cnc4[nH]cc(-c5nncn5-c5cccc(F)c5F)c4c3)cn2)CC1", "6.00 to 6.70"],
  ["CN(C)CCNc1ccc(-c2cnc3[nH]cc(-c4nncn4-c4cccc(F)c4F)c3c2)cn1", "4.90 to 6.00"],
  ["CN(C)C1CCC(c2cnc3[nH]cc(-c4oncc4-c4cccc(F)c4F)c3c2)CC1 (centres unmarked)", "6.00 to 6.70"],
  ["Fc1cccc(-n2cnnc2-c2c[nH]c3ncc(-c4ccncc4)cc23)c1F", "4.90 to 6.00"]
]}

For each of the compounds below, state pKi.
1. Fc1cccc(-c2cnoc2-c2c[nH]c3ncc(-c4ccc(N5CCNCC5)cc4)cc23)c1F
2. CCN1CCC(c2cnc3[nH]cc(-c4oncc4-c4cccc(F)c4F)c3c2)CC1
3. CS(=O)(=O)Nc1ccc(-c2cnc3[nH]cc(-c4oncc4-c4cccc(F)c4F)c3c2)cc1

Given back:
["> 6.70", "4.90 to 6.00", "6.00 to 6.70"]

====

# Test Target: Aurora-2 (Homo sapiens)
# Sequence (O14965 1-403): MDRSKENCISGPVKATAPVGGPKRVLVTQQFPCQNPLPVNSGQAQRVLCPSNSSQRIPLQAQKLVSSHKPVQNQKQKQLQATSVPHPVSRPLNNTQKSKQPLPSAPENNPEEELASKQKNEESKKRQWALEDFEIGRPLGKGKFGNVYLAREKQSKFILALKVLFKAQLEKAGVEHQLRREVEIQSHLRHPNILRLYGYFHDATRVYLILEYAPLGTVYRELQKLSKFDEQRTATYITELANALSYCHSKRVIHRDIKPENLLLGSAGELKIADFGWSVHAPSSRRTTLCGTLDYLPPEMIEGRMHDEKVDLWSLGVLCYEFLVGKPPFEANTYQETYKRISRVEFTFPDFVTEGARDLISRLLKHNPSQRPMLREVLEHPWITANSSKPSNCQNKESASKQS
Give Ki for every item shown.

Required: Ki, one value per compound below.
1. O=c1[nH]ccc2c(-c3oncc3-c3cccc(F)c3F)c[nH]c12
2. c1cnc2[nH]cc(-c3oncc3C3CCCCC3)c2c1
3. Fc1cccc(-c2cnoc2-c2c[nH]c3ncc(-c4cccnc4)cc23)c1F
4. Nc1ccc(-c2cnc3[nH]cc(-c4oncc4-c4cccc(F)c4F)c3c2)cc1
5. CC(=O)Nc1cccc(-c2cnc3[nH]cc(-c4oncc4-c4cccc(F)c4F)c3c2)c1

Given back:
1: 200 to 1000 nM; 2: 200 to 1000 nM; 3: < 200 nM; 4: < 200 nM; 5: < 200 nM

====

Read-out record for KDR (Homo sapiens): pKi
pKi: −log10 of the molar value.

Recorded results for 4 compounds are shown here.
{"columns": ["Compound", "Result"],
 "data": [
  ["CN1CCN(c2ccc(-c3cnc4[nH]cc(-c5oncc5-c5cccc(F)c5F)c4c3)cn2)CC1", "> 6.70"],
  ["Fc1cccc(-c2cnoc2-c2c[nH]c3ncc(-c4ccccc4)cc23)c1F", "> 6.70"],
  ["Cc1noc(-c2c[nH]c3ncc(-c4ccc(N5CCN(C)CC5)cc4)cc23)c1-c1cccc(F)c1F", "6.00 to 6.70"],
  ["Nc1ccnc(-c2cnc3[nH]cc(-c4oncc4-c4cccc(F)c4F)c3c2)c1", "> 6.70"]
]}

Asked: Given Fc1cccc(-c2cnoc2-c2c[nH]c3ncc(-c4ccc(N5CCNCC5)cc4)cc23)c1F , respond with its pKi.
Given back: > 6.70

====

# Test Target: GSK-3β, (AA 1-420) (Homo sapiens, UniProt P49841)
# Sequence (P49841 whole entry, the tested form may be a part): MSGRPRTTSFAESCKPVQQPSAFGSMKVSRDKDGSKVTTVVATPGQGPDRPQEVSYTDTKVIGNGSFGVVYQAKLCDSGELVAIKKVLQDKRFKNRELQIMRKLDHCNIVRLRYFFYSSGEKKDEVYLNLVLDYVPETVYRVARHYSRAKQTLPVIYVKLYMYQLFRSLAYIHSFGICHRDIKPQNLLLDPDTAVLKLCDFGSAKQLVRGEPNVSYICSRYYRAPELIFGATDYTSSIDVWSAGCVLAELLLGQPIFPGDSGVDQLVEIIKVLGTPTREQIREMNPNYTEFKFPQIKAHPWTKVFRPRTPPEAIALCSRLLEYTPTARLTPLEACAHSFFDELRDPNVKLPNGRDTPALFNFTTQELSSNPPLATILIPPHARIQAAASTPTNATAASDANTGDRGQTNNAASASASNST
pKi: −log10 of the molar value.
Assignment: determine reported pKi for the given molecules.

Below are worked cases with known answers.
{"columns": ["Molecule", "pKi"],
 "data": [
  ["Nc1ccc(-c2cnc3[nH]cc(-c4oncc4-c4cccc(F)c4F)c3c2)cc1", "> 6.70"],
  ["CN(C)C1CCC(c2cnc3[nH]cc(-c4oncc4-c4cccc(F)c4F)c3c2)CC1 (stereo not shown)", "> 6.70"],
  ["CN(C)c1ccc(-c2cnc3[nH]cc(-c4oncc4-c4cccc(F)c4F)c3c2)cc1", "6.00 to 6.70"],
  ["Fc1cccc(-n2cnnc2-c2c[nH]c3ncc(-c4ccc(N5CCCC5)nc4)cc23)c1F", "6.00 to 6.70"],
  ["CC(=O)N1CCC(c2cnc3[nH]cc(-c4oncc4-c4cccc(F)c4F)c3c2)CC1", "> 6.70"]
]}

// each listed molecule needs a value for pKi
1. Fc1cccc(-c2cnoc2-c2c[nH]c3nc(Cl)c(-c4ccncc4)cc23)c1F
2. [O-][n+]1cccc2c(-c3oncc3-c3cccc(F)c3F)c[nH]c21
3. CCN1CCC(c2cnc3[nH]cc(-c4oncc4-c4cccc(F)c4F)c3c2)CC1
4. Fc1cccc(-c2cnoc2-c2c[nH]c3ncccc23)c1F
5. CN(C)Cc1cc(Cl)nc(-c2cnc3[nH]cc(-c4oncc4-c4cccc(F)c4F)c3c2)c1
6. Fc1cccc(-c2cnoc2-c2c[nH]c3ncc(-c4ccncc4)cc23)c1F
7. Fc1cnc2[nH]cc(-c3oncc3-c3cccc(F)c3F)c2c1

Given back:
1. 4.90 to 6.00
2. 4.90 to 6.00
3. > 6.70
4. 4.90 to 6.00
5. 6.00 to 6.70
6. 6.00 to 6.70
7. 4.90 to 6.00

Field: pKi. Fill in for each record below.
1. c1cncc(-c2cnoc2-c2c[nH]c3ncccc23)c1
2. CN(C)c1cccc(-c2cnc3[nH]cc(-c4oncc4-c4cccc(F)c4F)c3c2)c1
3. Oc1cnc2[nH]cc(-c3oncc3-c3cccc(F)c3F)c2c1
4. CNc1ccc2c(-c3oncc3-c3cccc(F)c3F)c[nH]c2n1

Given back:
1: 4.90 to 6.00; 2: 6.00 to 6.70; 3: 6.00 to 6.70; 4: 4.90 to 6.00
